EXPERIMENTAL_SYSTEM: farnesyl protein transferase (FPT)
PROTOCOL_TEXT: In vitro enzyme assay: inhibition of farnesyl protein transferase (FPT, FTase)
CONDITION_NOTES: concentration of compound which inhibits 50% of FPT transferase
RECORDED_METRIC: IC50

Observed IC50 on farnesyl protein transferase (FPT) for "O=C(c1ccccc1)C1CCN(C(=O)Cc2ccncc2)CC1" , please. > 60 µM

Entry "O=C(c1ccc(Cl)cc1)C1CCN(C(=O)Cc2ccncc2)CC1" please 60 µM

Entry "Cc1c(C)c(C)c(C(=O)C2CCN(C(=O)Cc3ccncc3)CC2)c(C)c1C" please 12.1 µM

Entry "O=C(c1ccc(F)cc1)C1CCN(C(=O)Cc2ccncc2)CC1" please > 60 µM
